Values from paper PMC4755858

Below, each entry is listed with its recorded Fold Change.
TEST_SYSTEM: phosphodiesterase protein GdpP (Bacillus subtilis, UniProt P37484)
Sequence (P37484 84-659): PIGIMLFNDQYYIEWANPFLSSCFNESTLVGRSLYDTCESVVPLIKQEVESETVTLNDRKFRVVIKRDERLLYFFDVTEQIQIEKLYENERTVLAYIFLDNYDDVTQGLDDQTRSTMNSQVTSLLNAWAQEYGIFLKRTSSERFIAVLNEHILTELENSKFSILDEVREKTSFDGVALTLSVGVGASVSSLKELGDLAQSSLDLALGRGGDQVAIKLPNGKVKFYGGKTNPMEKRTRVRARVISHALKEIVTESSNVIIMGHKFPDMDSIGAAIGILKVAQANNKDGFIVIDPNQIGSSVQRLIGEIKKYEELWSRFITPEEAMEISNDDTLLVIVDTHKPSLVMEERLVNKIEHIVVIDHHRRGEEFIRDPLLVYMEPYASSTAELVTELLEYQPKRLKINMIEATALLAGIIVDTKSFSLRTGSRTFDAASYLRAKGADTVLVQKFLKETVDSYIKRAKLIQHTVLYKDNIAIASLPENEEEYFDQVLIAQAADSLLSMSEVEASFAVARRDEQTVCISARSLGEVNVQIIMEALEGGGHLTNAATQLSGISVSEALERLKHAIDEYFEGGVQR
MEASUREMENT_NOTES: competition phosphodiesterase assay
MEASUREMENT_SETUP: Ki relative to Km of c-di-AMP (130 µM)

COMPOUND	TEST_SYSTEM	Fold Change
Nc1ncnc2c1ncn2[C@@H]1O[C@@H]2CO[P@@](=O)(S)O[C@H]3[C@@H](O)[C@H](n4cnc5c(N)ncnc54)O[C@@H]3CO[P@@](=O)(S)O[C@H]2[C@H]1O [c-(RpRp)-di-Aps]	phosphodiesterase protein GdpP (Bacillus subtilis, UniProt P37484)	2.0
Nc1ncnc2c1ncn2[C@@H]1O[C@@H]2COP(=O)(O)O[C@H]3[C@@H](F)[C@H](n4cnc5c(N)ncnc54)O[C@@H]3COP(=O)(O)O[C@H]2[C@H]1F [c-di-2’F-AMP]	phosphodiesterase protein GdpP (Bacillus subtilis, UniProt P37484)	0.2
Nc1ncnc2c1ncn2[C@@H]1O[C@@H]2COP(=O)(O)O[C@H]3C[C@H](n4cnc5c(N)ncnc54)O[C@@H]3COP(=O)(O)O[C@H]2[C@H]1F [c-dA-2’F-A]	phosphodiesterase protein GdpP (Bacillus subtilis, UniProt P37484)	0.07
Nc1ncnc2c1ncn2[C@H]1C[C@@H]2OP(=O)(O)OC[C@H]3O[C@@H](n4cnc5c(N)ncnc54)C[C@@H]3OP(=O)(O)OC[C@H]2O1 [c-di-dAMP]	phosphodiesterase protein GdpP (Bacillus subtilis, UniProt P37484)	1.5
CO[C@@H]1[C@@H]2OP(=O)(O)OC[C@H]3O[C@@H](n4cnc5c(N)ncnc54)[C@H](OC)[C@@H]3OP(=O)(O)OC[C@H]2O[C@H]1n1cnc2c(N)ncnc21 [c-di-2’OMe-AMP]	phosphodiesterase protein GdpP (Bacillus subtilis, UniProt P37484)	0.12

Moving on to the next compound.
Incoming: Fold Change lookup needed for Nc1ncnc2c1ncn2[C@@H]1O[C@@H]2CO[P@@](=O)(S)O[C@H]3[C@@H](O)[C@H](n4cnc5c(N)ncnc54)O[C@@H]3CO[P@](=O)(S)O[C@H]2[C@H]1O [c-(RpSp)-di-Aps] , thanks.
Outgoing: 1.6

---

TEST_SYSTEM: phosphodiesterase protein GdpP (GdpP84–659) (Bacillus subtilis, UniProt P37484)
Sequence (P37484 84-659): as above
MEASUREMENT_NOTES: HPLC phosphodiesterase assay, degradation rates of c-di-AMP and analogs
Format: biochemical
MEASUREMENT_SETUP: hydrolysis rate relative to c-di-AMP (fold slower)
READOUT_KIND: Fold Change
// return a plain number; no unit text

COMPOUND	Fold Change
Nc1ncnc2c1ncn2C1CC2OP(=O)(O)OCC3OC(n4cnc5c(N)ncnc54)C(O)C3OP(=O)(O)OCC2O1 (centres unmarked) [c-dA-AMP]	1.2
Nc1ncnc2c1ncn2[C@@H]1O[C@@H]2COP(=O)(O)O[C@H]3[C@@H](O)[C@H](n4cnc5c(=O)[nH]cnc54)O[C@@H]3COP(=O)(O)O[C@H]2[C@H]1O [c-AMP-IMP]	3.3
Nc1ncnc2c1ncn2[C@@H]1O[C@@H]2COP(=O)(O)O[C@H]3[C@@H](F)[C@H](n4cnc5c(N)ncnc54)O[C@@H]3COP(=O)(O)O[C@H]2[C@H]1O [c-2’F-A-AMP]	24

Moving on to the next compound.
Incoming: Fold Change lookup needed for COC1C2OP(=O)(O)OCC3OC(n4cnc5c(N)ncnc54)C(O)C3OP(=O)(O)OCC2OC1n1cnc2c(N)ncnc21 (centres unmarked) [c-2’OMe-A-AMP] , thanks.
Outgoing: 30

---

TEST_SYSTEM: phosphodiesterase protein GdpP (GdpP84–659) (Bacillus subtilis)
MEASUREMENT_NOTES: HPLC phosphodiesterase assay, degradation rates of c-di-AMP and analogs
Type: biochemical
MEASUREMENT_SETUP: hydrolysis rate relative to c-di-AMP (fold slower)
Below, each entry is listed with its recorded Fold Change.

// known answers, use as guide
COMPOUND	RESULT
Nc1ncnc2c1ncn2[C@@H]1O[C@@H]2COP(=O)(O)O[C@H]3C[C@H](n4cnc5c(N)ncnc54)O[C@@H]3COP(=O)(O)O[C@H]2[C@H]1F	≥ 4100
Nc1ncnc2c1ncn2[C@H]1C[C@@H]2OP(=O)(O)OC[C@H]3O[C@@H](n4cnc5c(N)ncnc54)C[C@@H]3OP(=O)(O)OC[C@H]2O1	≥ 4100

Incoming: Lookup: Fold Change / phosphodiesterase protein GdpP (GdpP84–659) (Bacillus subtilis) / Nc1ncnc2c1ncn2[C@@H]1O[C@@H]2CO[P@@](=O)(S)O[C@H]3[C@@H](O)[C@H](n4cnc5c(N)ncnc54)O[C@@H]3CO[P@](=O)(S)O[C@H]2[C@H]1O [c-(RpSp)-di-Aps]
Outgoing: ≥ 4100

---

Record set of log10 Ki for target or system phosphodiesterase protein GdpP (Bacillus subtilis).
Friendly reminder: values = log10 of Ki, unit µM.

MOLECULE	TEST_SYSTEM	READOUT_KIND	RECORDED_NUMBER
Nc1ncnc2c1ncn2[C@@H]1O[C@@H]2COP(=O)(O)O[C@H]3[C@@H](F)[C@H](n4cnc5c(N)ncnc54)O[C@@H]3COP(=O)(O)O[C@H]2[C@H]1F	phosphodiesterase protein GdpP (Bacillus subtilis)	log10 Ki	1.41
Nc1ncnc2c1ncn2[C@@H]1O[C@@H]2CO[P@@](=O)(S)O[C@H]3[C@@H](O)[C@H](n4cnc5c(N)ncnc54)O[C@@H]3CO[P@@](=O)(S)O[C@H]2[C@H]1O [c-(RpRp)-di-Aps]	phosphodiesterase protein GdpP (Bacillus subtilis)	log10 Ki	2.41
Nc1ncnc2c1ncn2[C@H]1C[C@@H]2OP(=O)(O)OC[C@H]3O[C@@H](n4cnc5c(N)ncnc54)C[C@@H]3OP(=O)(O)OC[C@H]2O1	phosphodiesterase protein GdpP (Bacillus subtilis)	log10 Ki	2.30
Nc1ncnc2c1ncn2[C@@H]1O[C@@H]2CO[P@@](=O)(S)O[C@H]3[C@@H](O)[C@H](n4cnc5c(N)ncnc54)O[C@@H]3CO[P@](=O)(S)O[C@H]2[C@H]1O [c-(RpSp)-di-Aps]	phosphodiesterase protein GdpP (Bacillus subtilis)	log10 Ki	2.32
CO[C@@H]1[C@@H]2OP(=O)(O)OC[C@H]3O[C@@H](n4cnc5c(N)ncnc54)[C@H](OC)[C@@H]3OP(=O)(O)OC[C@H]2O[C@H]1n1cnc2c(N)ncnc21	phosphodiesterase protein GdpP (Bacillus subtilis)	log10 Ki	1.18

Moving on to the next molecule.
Incoming: log10 Ki lookup needed for Nc1ncnc2c1ncn2[C@@H]1O[C@@H]2COP(=O)(O)O[C@H]3C[C@H](n4cnc5c(N)ncnc54)O[C@@H]3COP(=O)(O)O[C@H]2[C@H]1F , thanks.
Outgoing: 0.97

---

System: wild-type ydaO riboswitch
MEASUREMENT_NOTES: gel-shift
Type: binding, Bacillus subtilis
MEASUREMENT_SETUP: ΔGbind(analog) − ΔGbind(c-di-AMP), wild-type ydaO
READOUT_KIND: log10 of ΔΔGbind (log10 of the value in kcal/mol)
Friendly reminder: values = log10 of ΔΔGbind, unit kcal/mol.

// known answers, use as guide
COMPOUND	TEST_SYSTEM	RECORDED_NUMBER
O=c1[nH]cnc2c1ncn2[C@@H]1O[C@@H]2COP(=O)(O)O[C@H]3[C@@H](O)[C@H](n4cnc5c(=O)[nH]cnc54)O[C@@H]3COP(=O)(O)O[C@H]2[C@H]1O	wild-type ydaO riboswitch	0.69
Nc1ncnc2c1ncn2[C@@H]1O[C@@H]2COP(=O)(O)O[C@H]3[C@@H](O)[C@H](n4cnc5c(=O)[nH]cnc54)O[C@@H]3COP(=O)(O)O[C@H]2[C@H]1O	wild-type ydaO riboswitch	0.63
Nc1ncnc2c1ncn2[C@@H]1O[C@@H]2COP(=O)(O)O[C@H]3C[C@H](n4cnc5c(N)ncnc54)O[C@@H]3COP(=O)(O)O[C@H]2[C@H]1F	wild-type ydaO riboswitch	0.57
Nc1ncnc2c1ncn2[C@@H]1O[C@@H]2COP(=O)(O)O[C@H]3[C@@H](F)[C@H](n4cnc5c(N)ncnc54)O[C@@H]3COP(=O)(O)O[C@H]2[C@H]1F	wild-type ydaO riboswitch	0.71
Nc1ncnc2c1ncn2C1CC2OP(=O)(O)OCC3OC(n4cnc5c(N)ncnc54)C(O)C3OP(=O)(O)OCC2O1 (centres unmarked)	wild-type ydaO riboswitch	0.26

Incoming: log10 of ΔΔGbind lookup needed for Nc1ncnc2c1ncn2[C@H]1C[C@@H]2OP(=O)(O)OC[C@H]3O[C@@H](n4cnc5c(N)ncnc54)C[C@@H]3OP(=O)(O)OC[C@H]2O1 , thanks.
Outgoing: 0.53

Incoming: log10 of ΔΔGbind lookup needed for Nc1ncnc2c1ncn2[C@@H]1O[C@@H]2CO[P@@](=O)(S)O[C@H]3[C@@H](O)[C@H](n4cnc5c(N)ncnc54)O[C@@H]3CO[P@](=O)(S)O[C@H]2[C@H]1O [c-(RpSp)-di-Aps] , thanks.
Outgoing: -0.22

Incoming: log10 of ΔΔGbind lookup needed for Nc1ncnc2c1ncn2[C@@H]1O[C@@H]2COP(=O)(O)O[C@H]3[C@@H](F)[C@H](n4cnc5c(N)ncnc54)O[C@@H]3COP(=O)(O)O[C@H]2[C@H]1O , thanks.
Outgoing: 0.36

Incoming: log10 of ΔΔGbind lookup needed for Nc1ncnc2c1ncn2[C@@H]1O[C@@H]2CO[P@@](=O)(S)O[C@H]3[C@@H](O)[C@H](n4cnc5c(N)ncnc54)O[C@@H]3CO[P@@](=O)(S)O[C@H]2[C@H]1O [c-(RpRp)-di-Aps] , thanks.
Outgoing: -0.40
